Source of measurements: patent US20090298834A1

// reported IC50 for each item listed
Biological target: human α1H T-type channels (Homo sapiens, UniProt O95180)
Sequence (O95180 whole entry): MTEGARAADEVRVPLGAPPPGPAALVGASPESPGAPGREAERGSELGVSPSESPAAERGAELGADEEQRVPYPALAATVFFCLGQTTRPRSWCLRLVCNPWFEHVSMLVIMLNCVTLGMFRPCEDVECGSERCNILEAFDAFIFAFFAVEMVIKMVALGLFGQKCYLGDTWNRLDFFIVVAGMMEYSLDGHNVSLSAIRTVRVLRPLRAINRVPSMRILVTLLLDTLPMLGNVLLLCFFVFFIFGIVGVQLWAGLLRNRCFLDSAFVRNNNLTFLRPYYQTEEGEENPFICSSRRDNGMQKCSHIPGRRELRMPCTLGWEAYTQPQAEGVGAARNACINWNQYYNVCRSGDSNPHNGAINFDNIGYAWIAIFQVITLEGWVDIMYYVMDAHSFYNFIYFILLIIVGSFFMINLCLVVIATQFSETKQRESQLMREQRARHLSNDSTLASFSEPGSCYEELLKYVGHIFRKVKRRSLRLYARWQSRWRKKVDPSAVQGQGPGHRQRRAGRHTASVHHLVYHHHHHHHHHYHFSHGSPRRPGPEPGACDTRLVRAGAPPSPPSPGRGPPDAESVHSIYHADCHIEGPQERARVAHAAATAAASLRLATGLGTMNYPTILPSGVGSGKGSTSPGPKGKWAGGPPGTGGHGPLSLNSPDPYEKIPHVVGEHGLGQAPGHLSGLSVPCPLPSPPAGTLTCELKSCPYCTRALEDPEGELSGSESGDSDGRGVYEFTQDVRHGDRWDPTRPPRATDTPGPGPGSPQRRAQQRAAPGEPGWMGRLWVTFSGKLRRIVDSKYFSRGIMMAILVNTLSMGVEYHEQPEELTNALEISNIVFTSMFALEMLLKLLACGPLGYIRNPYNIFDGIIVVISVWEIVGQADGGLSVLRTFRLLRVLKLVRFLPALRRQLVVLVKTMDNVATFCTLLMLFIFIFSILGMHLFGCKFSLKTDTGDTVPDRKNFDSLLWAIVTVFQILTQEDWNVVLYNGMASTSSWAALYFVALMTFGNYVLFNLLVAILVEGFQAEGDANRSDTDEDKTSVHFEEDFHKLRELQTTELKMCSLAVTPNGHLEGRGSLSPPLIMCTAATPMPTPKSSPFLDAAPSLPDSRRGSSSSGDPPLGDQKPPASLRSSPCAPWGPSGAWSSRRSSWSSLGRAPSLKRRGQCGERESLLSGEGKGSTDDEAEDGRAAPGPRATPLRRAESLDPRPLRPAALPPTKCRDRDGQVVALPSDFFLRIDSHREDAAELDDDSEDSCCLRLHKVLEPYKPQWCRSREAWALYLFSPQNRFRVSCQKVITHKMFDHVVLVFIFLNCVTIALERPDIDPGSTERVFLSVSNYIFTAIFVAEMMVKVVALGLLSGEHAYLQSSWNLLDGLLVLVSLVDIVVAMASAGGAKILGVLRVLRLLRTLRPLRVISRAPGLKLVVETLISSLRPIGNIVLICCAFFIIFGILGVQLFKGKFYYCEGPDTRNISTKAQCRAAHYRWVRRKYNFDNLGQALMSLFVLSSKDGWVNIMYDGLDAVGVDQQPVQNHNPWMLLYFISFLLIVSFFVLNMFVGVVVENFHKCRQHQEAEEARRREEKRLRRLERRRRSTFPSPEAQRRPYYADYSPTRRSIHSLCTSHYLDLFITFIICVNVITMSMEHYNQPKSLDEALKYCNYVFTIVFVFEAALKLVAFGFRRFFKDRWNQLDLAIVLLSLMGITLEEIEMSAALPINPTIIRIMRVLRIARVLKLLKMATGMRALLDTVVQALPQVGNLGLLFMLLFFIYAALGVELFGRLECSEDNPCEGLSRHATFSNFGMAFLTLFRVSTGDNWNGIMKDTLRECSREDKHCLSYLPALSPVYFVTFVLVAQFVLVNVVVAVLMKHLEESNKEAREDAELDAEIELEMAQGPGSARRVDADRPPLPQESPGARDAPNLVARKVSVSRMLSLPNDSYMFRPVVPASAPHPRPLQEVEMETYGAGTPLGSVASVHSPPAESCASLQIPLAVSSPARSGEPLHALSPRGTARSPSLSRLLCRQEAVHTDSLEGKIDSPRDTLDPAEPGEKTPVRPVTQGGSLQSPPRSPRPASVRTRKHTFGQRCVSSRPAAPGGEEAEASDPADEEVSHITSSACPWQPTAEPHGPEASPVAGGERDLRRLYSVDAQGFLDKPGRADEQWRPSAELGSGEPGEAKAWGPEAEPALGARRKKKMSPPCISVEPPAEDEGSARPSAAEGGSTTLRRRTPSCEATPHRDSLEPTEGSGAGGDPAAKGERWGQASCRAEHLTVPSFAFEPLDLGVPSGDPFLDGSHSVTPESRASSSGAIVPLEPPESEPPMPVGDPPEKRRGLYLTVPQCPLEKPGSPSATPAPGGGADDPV
Test: T-type calcium channel block, whole cell patch clamp (α1H)
Settings: HEK cells stably expressing human α1H; mainly non-inactivated protocol; values above 10 μM represented as 10 μM
Enter your answer as a number in nM; do not include the unit.

Consider the following illustrative entries.
compound	targetEntity	scaleUnit	reportedResult
CC(C)(C)NC(=O)CN[C@H]1CC[C@@H](CNC(=O)c2cccc(Br)c2)CC1	human α1H T-type channels (Homo sapiens, UniProt O95180)	nM	820
COc1ccc(CN[C@H]2CC[C@@H](CNC(=O)c3cc(C(F)(F)F)cc(C(F)(F)F)c3)CC2)c(OC)c1	human α1H T-type channels (Homo sapiens, UniProt O95180)	nM	560
O=C(C[C@H]1CC[C@H](NC(=O)[C@@H]2CCCN2)CC1)Nc1cc(C(F)(F)F)cc(C(F)(F)F)c1	human α1H T-type channels (Homo sapiens, UniProt O95180)	nM	1530

Req: # value lookup — system human α1H T-type channels (Homo sapiens, UniProt O95180), readout IC50, item `O=C(CN[C@H]1CC[C@H](CNC(=O)c2cc(C(F)(F)F)cc(C(F)(F)F)c2)CC1)NCC(F)(F)F`
Resp: 530

Req: # value lookup — system human α1H T-type channels (Homo sapiens, UniProt O95180), readout IC50, item CC(C)(C)C1CN([C@H]2CC[C@H](CNC(=O)c3cc(C(F)(F)F)cc(C(F)(F)F)c3)CC2)C(=O)O1 (stereo partly drawn)
Resp: 4010

Req: # value lookup — system human α1H T-type channels (Homo sapiens, UniProt O95180), readout IC50, item `O=C(NC[C@H]1CC[C@@H](N2CC(C(F)(F)F)(C(F)(F)F)OC2=O)CC1)c1cc(F)cc(C(F)(F)F)c1`
Resp: 6160
